Target desc: Mitogen-activated protein kinase 1 (Homo sapiens) (UniProt P28482)
Experiment summary: clock period lengtheners with kinase target profiling – cell-based, U2OS Bmal1-dLuc, CKIdelta, CKIalpha, ERK2, CDK7, mechanism study for circadian clock modulator project, late-stage follow-up (AID 493019)
Reported conditions: U2OS Bmal1-dLuc circadian period lengthening, luminescence; measured here: ERK2 in vitro kinase
Property label: IC50 (µM)

[1] CC(C)n1cnc2c(NCc3cccc(C(F)(F)F)c3)ncnc21
[2] CC(C)n1cnc2c(NCc3ccccc3)ncnc21
Please compare: 1 and 2 . Report which one has the smaller IC50 value. Your answer should be the label of the entry you select.
1

====

Target desc: Casein kinase I isoform delta (Homo sapiens) (UniProt P48730)
Experiment summary: clock period lengtheners with kinase target profiling – cell-based, U2OS Bmal1-dLuc, CKIdelta, CKIalpha, ERK2, CDK7, mechanism study for circadian clock modulator project, late-stage follow-up (AID 493019)
Reported conditions: U2OS Bmal1-dLuc circadian period lengthening, luminescence; measured here: CKIdelta in vitro kinase
Property label: IC50 (µM)

[A] CC(C)n1cnc2c(NCc3ccccc3)ncnc21
[B] CC(C)n1cnc2c(NCc3cccc(C(F)(F)F)c3)ncnc21
Please compare: A and B . Report which one has the smaller IC50 value. Your answer should be the label of the entry you select.
B
(B: 8.8 µM, A: 21 µM)

====

Target desc: Casein kinase I isoform alpha (Homo sapiens) (UniProt P48729)
Experiment summary: clock period lengtheners with kinase target profiling – cell-based, U2OS Bmal1-dLuc, CKIdelta, CKIalpha, ERK2, CDK7, mechanism study for circadian clock modulator project, late-stage follow-up (AID 493019)
Reported conditions: U2OS Bmal1-dLuc circadian period lengthening, luminescence; measured here: CKIalpha in vitro kinase
pIC50: −log10 of the molar value.
Property label: pIC50

[a] CC(C)n1cnc2c(NCc3cccc(C(F)(F)F)c3)ncnc21
[b] CC(C)n1cnc2c(NCc3ccccc3)ncnc21
Please compare: a and b . Report which one has the smaller pIC50 value. Your answer should be the label of the entry you select.
b
(b: 4.64, a: 5.25)
